Where do these numbers come from? They come from ChEMBL document CHEMBL5291721.

Study System: Prostaglandin G/H synthase 1 (Rattus norvegicus, UniProt Q63921); note: assay procedure not described here
Sequence (Q63921 whole entry): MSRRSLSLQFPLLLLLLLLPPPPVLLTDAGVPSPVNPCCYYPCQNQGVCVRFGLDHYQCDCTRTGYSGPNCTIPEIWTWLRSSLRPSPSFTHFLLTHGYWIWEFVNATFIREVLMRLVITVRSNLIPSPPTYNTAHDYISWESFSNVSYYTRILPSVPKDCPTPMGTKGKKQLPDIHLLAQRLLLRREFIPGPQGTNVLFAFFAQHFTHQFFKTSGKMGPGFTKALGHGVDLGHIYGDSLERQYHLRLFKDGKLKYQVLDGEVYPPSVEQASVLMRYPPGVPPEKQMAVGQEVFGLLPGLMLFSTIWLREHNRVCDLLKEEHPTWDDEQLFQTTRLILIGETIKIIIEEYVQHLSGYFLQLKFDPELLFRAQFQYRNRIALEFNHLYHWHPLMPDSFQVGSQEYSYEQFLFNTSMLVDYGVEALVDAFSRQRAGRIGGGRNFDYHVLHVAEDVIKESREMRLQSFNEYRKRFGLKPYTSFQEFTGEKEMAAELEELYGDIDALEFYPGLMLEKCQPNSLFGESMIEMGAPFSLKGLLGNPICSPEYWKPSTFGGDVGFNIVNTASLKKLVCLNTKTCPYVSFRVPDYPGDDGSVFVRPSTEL
Type: functional
Measured Attribute: AC50

• Cc1ccc(S(=O)(=O)NC(=O)N[C@H]2[C@H]3CC[C@@](C)([C@H]2O)C3(C)C)cc1 [GLIBORNURIDE] = > 30 µM
• COc1cc2c(cc1OC)C1CC(=O)C(CC(C)C)CN1CC2 (stereo unspecified) = > 30 µM
• CC1=C(CC(=O)O)c2cc(F)ccc2/C1=C\c1ccc([S+](C)[O-])cc1 (stereo unspecified) = > 30 µM
• O=C(C[S+]([O-])Cc1ccco1)NC/C=C\COc1cc(CN2CCCCC2)ccn1 (stereo unspecified) = > 10 µM
• Cn1cnc2c(F)c(Nc3ccc(Br)cc3F)c(C(=O)NOCCO)cc21 = > 30 µM
• CC(C)(Oc1ccc(Cl)cc1)C(=O)OCCOC(=O)c1cccnc1 [ETOFIBRATE] = > 30 µM

###

AC50 data for Adenosine receptor A1 (Homo sapiens, UniProt P30542) follow.
Measured Attribute: AC50

* CC[N+](CC)(CCNC(=O)C(=O)NCC[N+](CC)(CC)Cc1ccccc1Cl)Cc1ccccc1Cl [AMBENONIUM] | > 30 µM
* CN(C)[C@@H]1C(O)=C(C(=O)NCN2CCCC2)C(=O)[C@@]2(O)C(O)=C3C(=O)c4c(O)cccc4[C@@](C)(O)[C@H]3C[C@@H]12 [ROLITETRACYCLINE] | > 10 µM
* CO[C@@H]1[C@@H](OC(N)=O)[C@@H](O)[C@H](Oc2ccc3c(O)c(NC(=O)c4ccc(O)c(CC=C(C)C)c4)c(=O)oc3c2C)OC1(C)C [NOVOBIOCIN] | > 30 µM
* Nc1nc(Cl)nc2c1ncn2[C@@H]1O[C@H](CO)[C@@H](O)[C@@H]1F [CLOFARABINE] | 2.3 µM
* O=C(C[S+]([O-])Cc1ccco1)NC/C=C\COc1cc(CN2CCCCC2)ccn1 (stereo not drawn) [LAFUTIDINE] | > 10 µM
* CNCCc1ccccn1 [BETAHISTINE] | > 30 µM
* CN1CCCN=C1/C=C/c1cccc(O)c1 [OXANTEL] | > 30 µM
* Oc1cc(Cl)ccc1Oc1ccc(Cl)cc1Cl [TRICLOSAN] | > 30 µM

###

Study System: Glutamate receptor ionotropic, NMDA 1 (Rattus norvegicus, UniProt P35439); note: assay procedure not described here
Measured Attribute: AC50

* C#CCN(C)Cc1ccccc1 | > 30 µM
* CN1C2CCCC1CC(NC(=O)c1nn(C)c3ccccc13)C2 (stereo not given) | > 10 µM
* C=CC1=C(C(=O)O)N2C(=O)[C@@H](NC(=O)/C(=N\O)c3csc(N)n3)[C@H]2SC1 | > 10 µM
* Oc1cc(Cl)ccc1Oc1ccc(Cl)cc1Cl | > 30 µM
* OCC(CO)N[C@H]1C[C@](O)(CO)[C@@H](O)[C@H](O)[C@H]1O | > 30 µM

###

AC50 data for Adenosine receptor A2a (Homo sapiens) follow.
Measured Attribute: AC50

- O=C(O)CCCC[C@@H]1SC[C@@H]2NC(=O)N[C@@H]21: > 10 µM
- CCC1(c2ccccc2)C(=O)NCNC1=O: > 10 µM
- CCCO[C@H]1[C@@H]([C@@H](COCc2ccc(Cl)cc2)OCc2ccc(Cl)cc2)OC(OCC)[C@@H]1O (stereo partly drawn) [CLOBENOSIDE]: > 30 µM
- CC(=O)N1CCN(c2ccc(OCC3COC(Cn4ccnc4)(c4ccc(Cl)cc4Cl)O3)cc2)CC1 (stereo not drawn): > 30 µM
- C[C@]12C=CC(=O)C=C1CC[C@@H]1[C@@H]2[C@@H](O)C[C@@]2(C)[C@H]1CC[C@]2(O)C(=O)CO: > 30 µM
- COc1ccc(-n2nc(C(N)=O)c3c2C(=O)N(c2ccc(N4CCCCC4=O)cc2)CC3)cc1: > 30 µM
- N[C@@H](Cc1cc(I)c(Oc2cc(I)c(O)c(I)c2)c(I)c1)C(=O)O: > 30 µM
- Nc1cc(N2CCCCC2)nc(N)[n+]1[O-]: > 30 µM
